# experimental system: UniProtKB Q12809
# protocol: in vitro
# Description: MMV: Malaria Box compounds were tested for inhibition of the human ether a go-go related gene (hERG), Kv11.1 channel, using IonWorks 384-well patch clamp electrophysiology at 11.1uM (3 independent assay plates up to 12 cells per concentration).
Hi, to clarify the labels: t covers inhibition at 11.1 µM from 40% upward, f covers anything below 40%.

Here are 5 compounds together with their reported answers.
[[record]]
compound = "CCCCOc1ccc(C(=O)Nc2cc(C)on2)cc1"
discrete_label = "f"

[[record]]
compound = "CN(C)CCNc1cc(-c2ccccc2)nc2ccccc12"
discrete_label = "t"

[[record]]
compound = "O=C(NCc1ccco1)C1CCN(S(=O)(=O)c2ccc(Cl)cc2)CC1"
discrete_label = "f"

[[record]]
compound = "Clc1ccc2c(N3CCCC3)ccnc2c1"
discrete_label = "t"

[[record]]
compound = "Cc1cc(N2CCN(C3CCCC3)CC2)n2c(nc3ccccc32)c1C#N"
discrete_label = "t"


Q. Record "CCn1nc(-c2ccc(C(=O)OC)cc2)nc2c(=O)n(C)c(=O)nc1-2" ; criterion: inhibition at 11.1 µM no lower than 40%. Met?
A. f

====

# experimental system: hERG (Kv11.1, KCNH2) (Homo sapiens, UniProt Q12809)
# Sequence (Q12809 whole entry): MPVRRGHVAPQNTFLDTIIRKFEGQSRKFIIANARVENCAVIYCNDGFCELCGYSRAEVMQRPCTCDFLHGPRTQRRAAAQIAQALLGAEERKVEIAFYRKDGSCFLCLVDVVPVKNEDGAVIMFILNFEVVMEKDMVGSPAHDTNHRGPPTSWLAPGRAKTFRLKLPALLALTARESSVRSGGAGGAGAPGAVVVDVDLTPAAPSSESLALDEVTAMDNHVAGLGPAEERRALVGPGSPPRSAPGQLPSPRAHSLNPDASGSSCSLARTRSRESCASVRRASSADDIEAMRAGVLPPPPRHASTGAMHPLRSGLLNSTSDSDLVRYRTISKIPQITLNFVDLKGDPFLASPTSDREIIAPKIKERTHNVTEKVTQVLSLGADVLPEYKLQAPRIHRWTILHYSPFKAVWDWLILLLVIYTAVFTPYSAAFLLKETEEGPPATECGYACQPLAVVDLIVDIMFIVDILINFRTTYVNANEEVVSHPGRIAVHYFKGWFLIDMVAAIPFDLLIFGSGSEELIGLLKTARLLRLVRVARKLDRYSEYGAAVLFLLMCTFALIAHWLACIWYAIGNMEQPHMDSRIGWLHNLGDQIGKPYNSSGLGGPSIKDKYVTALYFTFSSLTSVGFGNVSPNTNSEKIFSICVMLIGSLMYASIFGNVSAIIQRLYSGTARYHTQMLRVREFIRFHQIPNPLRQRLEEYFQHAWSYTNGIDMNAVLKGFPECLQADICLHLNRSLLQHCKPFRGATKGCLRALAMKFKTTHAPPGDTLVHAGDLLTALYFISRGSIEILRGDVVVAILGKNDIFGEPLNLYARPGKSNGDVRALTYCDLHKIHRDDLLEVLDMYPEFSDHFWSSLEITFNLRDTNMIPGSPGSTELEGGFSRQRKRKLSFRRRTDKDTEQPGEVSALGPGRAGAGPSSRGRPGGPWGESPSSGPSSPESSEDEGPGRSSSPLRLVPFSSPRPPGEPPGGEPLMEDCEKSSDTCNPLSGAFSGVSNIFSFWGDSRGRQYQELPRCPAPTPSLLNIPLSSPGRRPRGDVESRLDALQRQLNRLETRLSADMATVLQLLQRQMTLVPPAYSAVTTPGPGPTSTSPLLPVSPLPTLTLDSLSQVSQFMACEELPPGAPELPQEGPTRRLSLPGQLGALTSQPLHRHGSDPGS
# protocol: in vitro
Activity calls are given as the source filed them. The rule behind the calls is not given here.
parameter: inhibition at 11.1 µM

Take a look at these entries with their results.
[[record]]
entry_smiles = "Cc1cc(Nc2ccc(OCc3ccccc3)cc2)nc2cc(O)ccc12"
experimental_value = "108% (active)"

[[record]]
entry_smiles = "CC(C)OCc1cc(CN2CCN(c3cccc(Cl)c3)CC2)c(O)c2ncccc12"
experimental_value = "100%"


Now examine the next entry.
Q. # lookup: inhibition at 11.1 µM of "CC1CCN(Cc2c(O)ccc3cc(-c4nc5ccccc5s4)c(=O)oc23)CC1"
A. 10% (inactive)

====

# experimental system: hERG (Kv11.1, KCNH2) (Homo sapiens, UniProt Q12809)
# protocol: in vitro
Quick rule: inhibition at 11.1 µM of at least 20% means TRUE, below that means FALSE.

// below: answered compounds
[[record]]
compound = "OC(CNC1CCCCC1)Cn1c2ccc(I)cc2c2cc(I)ccc21 (stereo not given)"
discrete_label = "FALSE"

[[record]]
compound = "CCOc1cc2c(cc1OCC)C(c1cc(Cl)c(O)c(OCC)c1)NCC2 (stereo not given)"
discrete_label = "TRUE"

[[record]]
compound = "CCOc1c(Cl)cc(CNCC(O)c2ccccc2)cc1OC (stereo not given)"
discrete_label = "TRUE"

[[record]]
compound = "COc1ccc2c(c1)OC(O)(C(F)(F)C(F)(F)F)CC2=O (stereo not given)"
discrete_label = "TRUE"


Shift focus to the following entry.
Q. State whether the measured inhibition at 11.1 µM reaches 20%, counting equality as reaching it, for "CCOc1ccc2nc(C)cc(Nc3ccc(Br)cc3)c2c1"
A. FALSE

====

# experimental system: hERG (Kv11.1, KCNH2) (Homo sapiens)
# protocol: in vitro
The source made the active and inactive calls. No rule for the calls is given here.
The compounds listed here are annotated with their inhibition at 11.1 µM.

[[record]]
compound = "Cc1nc2ccccc2c(O)c1CC=C(Cl)Cl"
parameter = "inhibition at 11.1 µM"
experimental_value = "-2% (inactive)"

[[record]]
compound = "CC(C)(C)c1ccc2c(c1)CN(Cc1ccc(Cl)cc1)CO2"
parameter = "inhibition at 11.1 µM"
experimental_value = "12% (inactive)"


// below: inhibition at 11.1 µM requested for another compound
Q. Notebook: pull reported inhibition at 11.1 µM for hERG (Kv11.1, KCNH2) (Homo sapiens), entry COc1ccc(C(=O)NC(c2ccccc2Cl)c2cc(Cl)c3cccnc3c2O)cc1 (stereo not drawn)
A. 7% (inactive)

====

# experimental system: hERG (Kv11.1, KCNH2) (Homo sapiens)
# protocol: in vitro
Cut-off 40% on inhibition at 11.1 µM, inclusive. At or above means 1.0; below means 0.0.

Answered cases to consult:
[[record]]
compound = "Cc1ccc(Cl)cc1N1CCN(CCCNC(=O)C2CCN(c3nc4ccccc4[nH]3)CC2)CC1"
experimental_system = "hERG (Kv11.1, KCNH2) (Homo sapiens)"
discrete_label = 1.0

[[record]]
compound = "COc1ccccc1CNC(=O)CCn1c(=O)[nH]c2ccsc2c1=O"
experimental_system = "hERG (Kv11.1, KCNH2) (Homo sapiens)"
discrete_label = 0.0

[[record]]
compound = "Cc1ccccc1OCCSc1nc2ccc(NC(=O)c3cccs3)cc2s1"
experimental_system = "hERG (Kv11.1, KCNH2) (Homo sapiens)"
discrete_label = 0.0


Turning now to a further compound:
Q. Check if inhibition at 11.1 µM >= 40% (inclusive). Item: "Cn1c(=O)n(C)c2cc(CNCCNc3ccnc4cc(Cl)ccc34)ccc21"
A. 1.0

====

# experimental system: hERG (Kv11.1, KCNH2) (Homo sapiens, UniProt Q12809)
# protocol: in vitro
# Description: MMV: Malaria Box compounds were tested for inhibition of the human ether a go-go related gene (hERG), Kv11.1 channel, using IonWorks 384-well patch clamp electrophysiology at 1.1uM (3 independent assay plates up to 12 cells per concentration).
parameter: inhibition at 1.1 µM (%)
Number only, in %; omit the unit.

# annotated cases, reported inhibition at 1.1 µM shown
[[record]]
compound = "CCOC(=O)c1c(C)n(-c2ccccc2)c2ccc(OC(=O)c3cc(OC)c(OC)c(OC)c3)cc12"
parameter = "inhibition at 1.1 µM"
measurement_unit = "%"
experimental_value = -6

[[record]]
compound = "CCCC(c1nnnn1C1CCCCC1)N1CCN(C(=O)c2ccco2)CC1 (stereo not given)"
parameter = "inhibition at 1.1 µM"
measurement_unit = "%"
experimental_value = 3

[[record]]
compound = "Cc1ccc(C(=O)c2oc3ccc4c(C)cc(=O)oc4c3c2C)cc1"
parameter = "inhibition at 1.1 µM"
measurement_unit = "%"
experimental_value = -3


Q. Returns the measured inhibition at 1.1 µM for the input compound. Input: CCCCCC(=O)N1c2ccccc2N=C2CC(c3ccc(OC)c(OC)c3)CC(O)=C2C1c1ccc(C(F)(F)F)cc1 (stereo not given)
A. 9

Q. Consider the compound "O=C(NC1CCN(Cc2ccccc2)CC1)c1cc2nc(-c3ccc(Cl)s3)cc(C(F)(F)F)n2n1" and give its measured inhibition at 1.1 µM.
A. 21

Q. Query (compound): "CCN1CCN(c2cc(C)c3cc(NC(=O)c4ccc(OC)c(OC)c4)ccc3n2)CC1" ; field requested: inhibition at 1.1 µM
A. 15

Q. Returns the measured inhibition at 1.1 µM for the input compound. Input: "CC(C)(C)c1ccc(C(=O)Nc2c3c(nn2-c2cccc(Cl)c2)CSC3)cc1"
A. 4

Q. // returns reported inhibition at 1.1 µM for input "FC(F)(F)c1cccc(Nc2nc(-c3ccccc3)nc3ncccc23)c1"
A. -8

Q. Entry "N=c1n(CCN2CCCCC2)c2ccccc2n1CC(=O)c1ccc(Cl)c(Cl)c1" : reported inhibition at 1.1 µM = ?
A. -13

Q. // returns reported inhibition at 1.1 µM for input "COc1cc(C(=O)Nc2nc3c(cc4c5c(cccc53)CC4)s2)cc(OC)c1OC"
A. 10

====

# experimental system: hERG (Kv11.1, KCNH2) (Homo sapiens, UniProt Q12809)
# protocol: in vitro
This section presents compounds with their documented inhibition at 1.1 µM values.
Write it as a number; the unit % goes unstated.

Field: example entries. Status: answers known.
[[record]]
entry_smiles = "Cc1cc(N2CCCC2)nc(Nc2ccc(NC(=O)CCc3ccccc3)cc2)n1"
parameter = "inhibition at 1.1 µM"
experimental_value = 9

[[record]]
entry_smiles = "CC(=O)c1ccc(NC(=O)CSc2nc(-c3ccccc3Cl)ns2)cc1"
parameter = "inhibition at 1.1 µM"
experimental_value = -6


Moving on to the next compound.
Q. Test system hERG (Kv11.1, KCNH2) (Homo sapiens, UniProt Q12809); read-out inhibition at 1.1 µM; what value for "CCN(CC)CCNc1ccnc2cc3ccccc3cc12" ?
A. 9

====

# experimental system: hERG (Kv11.1, KCNH2) (Homo sapiens, UniProt Q12809)
# protocol: in vitro
This listing pairs compounds with measured inhibition at 11.1 µM.
Respond with the bare value in %.

Examples with their reported inhibition at 11.1 µM follow.
[[record]]
compound = "COc1ccc(CNC(=O)c2cc3c(=O)n4ccccc4nc3n(CCc3ccccc3)c2=N)cc1"
parameter = "inhibition at 11.1 µM"
experimental_value = 45

[[record]]
compound = "CCCCC(O)(c1ccc(Cl)cc1)C(CN1CCOCC1)c1ccc(Cl)cc1 (stereo not given)"
parameter = "inhibition at 11.1 µM"
experimental_value = 35

[[record]]
compound = "CC1CCN(Cc2ccc(NC(=O)c3cc4ccc5cccnc5c4[nH]3)cc2)CC1"
parameter = "inhibition at 11.1 µM"
experimental_value = 101

[[record]]
compound = "COc1ccc(CCN2C(=O)c3[nH]nc(-c4cc(Cl)c(C)cc4O)c3C2c2ccccc2F)cc1 (stereo not given)"
parameter = "inhibition at 11.1 µM"
experimental_value = 5


Now for a further compound.
Q. Look up inhibition at 11.1 µM for this compound: "c1ccc2c(NCCc3c[nH]c4ccccc34)c3ccccc3nc2c1"
A. 109

====

# key: entry, value: inhibition at 1.1 µM
# experimental system: hERG (Kv11.1, KCNH2) (Homo sapiens, UniProt Q12809)
# protocol: in vitro
// return numeric value only (unit: %, not printed)

[[record]]
molecule = "CC(C)(C)CC(C)(C)NCC(O)COc1ccc(Cl)cc1Cl (stereo not drawn)"
experimental_value = 8


Q. Item "Cc1ccc(OCCCCCCNCCO)c(C)c1" has what recorded inhibition at 1.1 µM?
A. -6

Q. Could you share which inhibition at 1.1 µM value was measured for CC1CN(C(=O)c2sc3ccccc3c2Cl)CC(C)O1 (stereo not drawn) ?
A. 4

Q. Would you mind telling me what inhibition at 1.1 µM value was observed for OC(Cn1nnc2ccccc21)Cn1c2ccc(Br)cc2c2cc(Br)ccc21 (stereo not drawn) ?
A. 21

Q. // returns reported inhibition at 1.1 µM for input "Clc1cc(Br)ccc1-c1ccc(CNCC2CCNCC2)o1"
A. 16

Q. Can you share its inhibition at 1.1 µM? I mean this molecule: "CCOc1ccc(C2N(C)c3ccccc3N2C)cc1"
A. 2

Q. Form field: reported inhibition at 1.1 µM of "CCOC(=O)C1(Cc2ccccc2)CCN(Cc2cccc(OC)c2O)CC1"
A. 18

Q. What value of inhibition at 1.1 µM has been recorded for this entry: "Cc1ccc2cc3c(N)c4c(C)ccc(C)c4nc3nc2c1"
A. 16

Q. For the molecule shown here, CC(C)(C)CC(C)(C)NCC(O)COc1ccc2c(c1)CCC2 (stereo not drawn) , give the reported inhibition at 1.1 µM.
A. 8

Q. Which inhibition at 1.1 µM is reported for this molecule? "CCOC(=O)C1=CN(C)C=C(C(=O)OCC)C1c1cc(Br)c(OCC)c(OC)c1"
A. 16

Q. Reported inhibition at 1.1 µM, molecule "Cc1cc(N2CCN(C3CCCC3)CC2)n2c(nc3ccccc32)c1C#N" : ____
A. -3

Q. What value of measured inhibition at 1.1 µM is listed for COc1ccc(Br)cc1C1Nc2ccc3ccccc3c2C2=C1C(=O)CC(c1ccccc1)C2 (stereo not drawn) ?
A. -2

Q. Fill in: inhibition at 1.1 µM of "COc1cccc(Nc2nc(N)c3ccccc3n2)c1" is ___
A. 10

Q. Which inhibition at 1.1 µM reading was recorded for the molecule "CC1CCN(Cc2c(O)ccc3cc(-c4nc5ccccc5s4)c(=O)oc23)CC1" ?
A. -3

Q. Would you kindly share the measured inhibition at 1.1 µM for CC(NCc1ccccc1)c1cc(Cl)ccc1O (stereo not drawn) ?
A. -4

Q. Bench note: what inhibition at 1.1 µM did "CCOc1c(Br)cc(C2C(C(=O)OC)=CN(C)C=C2C(=O)OC)cc1OC" show?
A. 3

Q. Sample "Cc1c(C)n(Cc2ccc(F)cc2)c2ccc(C(=O)NCc3ccco3)cc12" — what was its inhibition at 1.1 µM?
A. -2

Q. What inhibition at 1.1 µM value was documented for this molecule, "CCN(CC)CCCNc1ccnc2cc3ccccc3cc12" ?
A. -2

Q. For "CCOC(=O)c1cnc2c(C)cccc2c1Nc1ccc(C(C)=O)cc1" , what is its reported inhibition at 1.1 µM?
A. 6

Q. For the molecule OC1=C2C(=Nc3ccccc3SC2c2ccccc2)c2ccccc21 (stereo not drawn) , what inhibition at 1.1 µM is on record?
A. 15

Q. Would you mind telling me what inhibition at 1.1 µM value was observed for "COc1cc(C(=O)Nc2ccc(-c3nc4ccccc4[nH]3)cc2)cc(OC)c1OC" ?
A. -12

Q. What does the data say about its inhibition at 1.1 µM? Entry: "COc1cc(OC)cc(N2C(=O)N(Cc3ccc(C(C)(C)C)cc3)c3ccccc3S2(=O)=O)c1"
A. 10

Q. Query (molecule): "Cc1ccc(CSCc2ccc(C(=O)NC3CC3)o2)cc1" ; field requested: inhibition at 1.1 µM
A. 2

Q. Form field: reported inhibition at 1.1 µM of "CCCc1c(C)nc2ccccc2c1O"
A. -17

Q. Field request: inhibition at 1.1 µM | item: "Oc1c2c(nc3cc(-c4ccccc4)nn13)CCCC2"
A. 2
